In this section we review reported Post-emerge Herbicidal Activity CORN values for a set of compounds.
- System: field corn (Zea mays L., var. Dekalb 535, CORN)
- method: Post-emerge test, crop safety
- Assay type: in vivo
- experimental-setup: post-emerge, 63 g ai/ha, crop damage rating 0-100 at 14 days after application
- Description: A standard greenhouse herbicide activity screening system was used to evaluate the herbicidal efficacy and crop safety of these test compounds. […] At 14 days after application of the test materials, phytotoxicity ratings were recorded. […]
// no unit string in output, number only

// worked examples, Post-emerge Herbicidal Activity CORN included
[
  {
    "compound": "Cc1cc(C)c(COC(=O)Nc2c(C)c(Cl)cc(F)c2-n2c(=O)cc(C(F)(F)F)n(C)c2=O)c(C)c1",
    "measured-result": 5
  },
  {
    "compound": "COc1c(Cl)cc(F)c(-n2ncc(C(F)(F)F)cc2=O)c1NC(=O)c1ccc2ccccc2c1",
    "measured-result": 0
  },
  {
    "compound": "COc1c(Cl)cc(F)c(-n2nnn(CCCF)c2=O)c1NC(=O)c1ccc2ccccc2c1",
    "measured-result": 10
  },
  {
    "compound": "COc1c(Cl)cc(F)c(-n2nc(C)n(C(F)F)c2=O)c1NC(=O)c1ccc(F)cc1F",
    "measured-result": 60
  },
  {
    "compound": "COc1cccc(COC(=O)Nc2c(C)c(Cl)cc(F)c2-n2c(=O)cc(C(F)(F)F)n(C)c2=O)c1",
    "measured-result": 80
  }
]

The compound listed as C#CCOc1c(Cl)cc(F)c(N2C(=O)C3=C(CCCC3)C2=O)c1N has a reported Post-emerge Herbicidal Activity CORN of 0

The compound listed as Nc1c(O)c(Cl)cc(F)c1N1C(=O)C2CCCCN2C1=S (single isomer, unassigned) [12-3] has a reported Post-emerge Herbicidal Activity CORN of 5

The compound listed as O=C(Nc1cc(Cl)ccc1-n1c(=O)n2n(c1=O)CCCC2)c1ccc2ccccc2c1 has a reported Post-emerge Herbicidal Activity CORN of 10
